- SYSTEM TESTED: chimeric P2X7/1 receptor 81–88 (Homo sapiens, UniProt Q99572, F88W/H85P/I21V/K81P/K82G/M24R/N16P/N25R/Q22R/R20V/S23N/S86Q/T19I/V84G/Y26L)
- Sequence (Q99572 whole entry N16P/T19I/R20V/I21V/Q22R/S23N/M24R/N25R/Y26L/K81P/K82G/V84G/H85P/S86Q/F88W): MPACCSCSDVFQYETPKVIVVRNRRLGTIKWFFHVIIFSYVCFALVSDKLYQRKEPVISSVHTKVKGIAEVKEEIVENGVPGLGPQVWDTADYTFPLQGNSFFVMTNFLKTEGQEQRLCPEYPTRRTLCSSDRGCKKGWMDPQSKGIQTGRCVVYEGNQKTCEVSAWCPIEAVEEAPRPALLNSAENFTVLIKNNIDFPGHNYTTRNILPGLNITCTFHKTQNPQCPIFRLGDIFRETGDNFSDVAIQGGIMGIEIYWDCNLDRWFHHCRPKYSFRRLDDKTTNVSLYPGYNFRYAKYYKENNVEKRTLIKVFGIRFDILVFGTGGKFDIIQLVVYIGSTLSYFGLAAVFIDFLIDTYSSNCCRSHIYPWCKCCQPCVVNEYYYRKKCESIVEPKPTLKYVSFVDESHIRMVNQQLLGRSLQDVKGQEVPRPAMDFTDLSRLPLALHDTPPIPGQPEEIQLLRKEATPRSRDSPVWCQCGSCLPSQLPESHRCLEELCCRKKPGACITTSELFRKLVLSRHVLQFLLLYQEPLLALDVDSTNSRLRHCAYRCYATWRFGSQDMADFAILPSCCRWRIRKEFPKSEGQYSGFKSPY
- TEST DETAILS: Two-electrode voltage clamp of ATP-evoked currents in Xenopus oocytes
MEASUREMENT LABEL: IC50 (nM)
Numeric only. Scale: nM

Sample COc1ccc(CC(=O)NC(N=C(NC#N)Nc2cccc3ncccc23)C(C)(C)C)cc1OC (centres unmarked) [A740003] — what was its IC50?
79.4

Others:
Sample Cl.Clc1cccc(-c2nnnn2Cc2cccnc2)c1Cl.O [A438079] — what was its IC50?
1000
